biological target: bacterial protein synthesis; assay: Translation assay, firefly luciferase reporter system with S30 Streptococcus pneumoniae extract; conditions: S30 extract from quinoline-succeptable Streptococcus pneumoniae ATCC 46919; luciferase mRNA; read-out: IC50, concentration causing 50% inhibition of bacterial protein synthesis
pIC50: −log10 of the molar value.
reported-endpoint: pIC50

>>> result("CC(=O)NC[C@H]1CN(c2ccc(N3CCOCC3)c(F)c2)C(=O)O1")
"~5.52"

Values were extracted from patent US6818654B2.
